Target: T1, ZFP SBS#1000 (synthetic)
T1 chain: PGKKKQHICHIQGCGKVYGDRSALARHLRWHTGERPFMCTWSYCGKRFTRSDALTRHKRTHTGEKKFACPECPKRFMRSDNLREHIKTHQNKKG
Assay: EMSA
Settings: tags: MBP fusion
readout: Kd (nM)
Field format: number, assumed nM, no unit text.

Field Kd (entry CAGTTGGTC (dsDNA) DNA 1: CAGTTGGTC DNA 2: GACCAACTG ) reads 11.2
